FYI, the data here is from patent US20210347727A1.

- Tested on: calpain activity in SH-SY5Y cells (Spectrin)
- test: SH-SY5Y Spectrin cellular calpain inhibition
- Format: cell-based
Recorded IC50 for the following compounds

compound	IC50
NC(=O)C(=O)C(Cc1ccccc1)NC(=O)C1c2ccccc2Oc2ccccc21 (stereo not drawn)	> 25 µM
NC(=O)C(=O)[C@H](Cc1ccccc1)NC(=O)c1c(F)cccc1C(F)(F)F	10 to 25 µM
NC(=O)C(=O)[C@H](Cc1ccccc1)NC(=O)c1c(Cl)cccc1Br	10 to 25 µM
Cc1ccc(F)c(C(=O)N[C@@H](Cc2ccccc2)C(=O)C(N)=O)c1Cl	10 to 25 µM
Cc1ccc(Cl)c(C(=O)N[C@@H](Cc2ccccc2)C(=O)C(N)=O)c1F	< 10 µM
O=CC(Cc1ccccc1)NC(=O)c1c(F)cccc1C(F)(F)F (stereo not drawn)	> 25 µM
O=CC(Cc1ccccc1)NC(=O)c1c(Cl)ccc2ccccc12 (stereo not drawn)	< 10 µM
Cn1c2ccccc2c2c(C(=O)NC(C=O)Cc3ccccc3)cccc21 (stereo not drawn)	> 25 µM
Cn1c2ccccc2c2c(C(=O)NC(Cc3ccccc3)C(=O)C(N)=O)cccc21 (stereo not drawn)	10 to 25 µM
O=CC(Cc1ccccc1)NC(=O)c1cccc2c1Oc1ccccc1O2 (stereo not drawn)	> 25 µM
NC(=O)C(=O)[C@H](Cc1ccccc1)NC(=O)c1cc(Cl)ccc1Cl	10 to 25 µM
NC(=O)C(=O)C(Cc1ccccc1)NC(=O)c1c(Cl)ccc2ccccc12 (stereo not drawn)	10 to 25 µM
O=CC(Cc1ccccc1)NC(=O)c1cccc2c1oc1ccccc12 (stereo not drawn)	10 to 25 µM
NC(=O)C(=O)[C@H](Cc1ccccc1)NC(=O)c1cc(F)c(Cl)cc1Cl	< 10 µM
NC(=O)C(=O)[C@H](Cc1ccccc1)NC(=O)c1ccc(F)cc1	> 25 µM
NC(=O)C(=O)[C@H](Cc1ccccc1)NC(=O)c1c(F)cccc1F	10 to 25 µM
O=CC(Cc1ccccc1)NC(=O)c1c(Cl)cccc1Cl (stereo not drawn)	10 to 25 µM
COc1ccc(F)c(C(=O)NC(C=O)Cc2ccccc2)c1Cl (stereo not drawn)	10 to 25 µM
